Biological target: TLR9 (Homo sapiens)
Construct: PBMCs were isolated from unpurified buffy coat from healthy human donors
Sequence (Q9NR96 26-1032): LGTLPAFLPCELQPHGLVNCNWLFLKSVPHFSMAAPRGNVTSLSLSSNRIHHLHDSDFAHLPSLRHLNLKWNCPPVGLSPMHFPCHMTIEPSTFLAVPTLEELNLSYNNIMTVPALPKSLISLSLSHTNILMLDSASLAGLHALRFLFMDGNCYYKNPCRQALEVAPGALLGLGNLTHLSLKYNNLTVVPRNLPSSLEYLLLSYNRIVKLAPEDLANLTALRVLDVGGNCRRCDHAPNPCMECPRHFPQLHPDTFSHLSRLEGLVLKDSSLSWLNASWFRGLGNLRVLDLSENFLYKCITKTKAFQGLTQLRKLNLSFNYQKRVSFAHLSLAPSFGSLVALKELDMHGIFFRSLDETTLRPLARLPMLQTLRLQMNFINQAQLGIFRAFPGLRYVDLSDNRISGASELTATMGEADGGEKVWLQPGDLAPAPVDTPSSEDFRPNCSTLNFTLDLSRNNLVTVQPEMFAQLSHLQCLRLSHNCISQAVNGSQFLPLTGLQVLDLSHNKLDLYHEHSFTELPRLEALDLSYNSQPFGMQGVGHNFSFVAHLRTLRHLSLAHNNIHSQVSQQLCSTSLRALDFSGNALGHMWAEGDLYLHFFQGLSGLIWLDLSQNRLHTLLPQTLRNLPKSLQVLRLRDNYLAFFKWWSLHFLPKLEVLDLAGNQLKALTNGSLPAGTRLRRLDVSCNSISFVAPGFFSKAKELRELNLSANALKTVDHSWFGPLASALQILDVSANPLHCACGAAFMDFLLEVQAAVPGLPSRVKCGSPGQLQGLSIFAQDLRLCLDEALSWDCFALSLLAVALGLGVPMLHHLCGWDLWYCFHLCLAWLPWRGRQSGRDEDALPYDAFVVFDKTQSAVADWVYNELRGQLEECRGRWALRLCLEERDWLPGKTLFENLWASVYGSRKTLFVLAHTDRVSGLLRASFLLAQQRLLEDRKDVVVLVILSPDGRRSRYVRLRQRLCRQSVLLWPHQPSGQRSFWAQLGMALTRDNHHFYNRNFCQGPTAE
Assay: TLR9 antagonist assay in human PBMCs (ODN2395, IFNα ELISA)
Settings: human PBMC, 0.25 μM ODN2395, IFNα readout
pIC50: −log10 of the molar value.
Values of pIC50 greater than or equal to 7 map to true; values below map to false.

Illustrative cases are given below, each with its answer.
Threshold query (pIC50 >= 7) on COCCN1CCN(c2nc(NCCN3CCOCC3)c3nc(Cl)c(NCCN4CCOCC4)nc3n2)CC1 [JB6160]
true

Is reported pIC50 greater than or equal to 7 here: CN1CCN(c2nc3nc(-c4ccccc4)nc(NCCN4CCOCC4)c3nc2OCCN2CCOCC2)CC1 [JB6116]
false

I'd appreciate it if you could say whether Clc1nc2c(NCCN3CCOCC3)nc(NCc3ccccc3)nc2nc1NCCN1CCOCC1 [JB6172] has pIC50 at least equal to 7.
false

Can Clc1nc2c(NCCN3CCOCC3)nc(N3CCOCC3)nc2nc1NCCN1CCOCC1 [JB6147] be said to have pIC50 at or above 7?
false

Reported pIC50 reaches at least 7 for CN1CCN(c2nc(NCCN3CCOCC3)c3ncc(-c4ccccc4)nc3n2)CC1 [JB6059] ?
false

---
Please tell me: is the compound C[C@@H]1CN(CCNc2nc3nc(N4CCN(C)CC4)nc(NCCN4C[C@@H](C)O[C@@H](C)C4)c3nc2Cl)C[C@H](C)O1 [JB6143] at or over 7 in terms of pIC50?
true

Tell me whether pIC50 is at least 7 here: CCOc1nc2c(NCCN3CCCC3)nc(-c3ccccc3)nc2nc1N1CCN(C)CC1 [JB6131]
false
